# target.entity: MC4r (Homo sapiens)
# protocol: Competitive inhibition binding assay, MC4r
# Design: expressed in transfected cells; host or cells: HEK-293 (membrane homogenates)
# condition.set: binding studies
pKi: −log10 of the molar value.
measurement.label: pKi

- compound: "CCNC(=O)N1CCC(N(CC(C)C)N2CCN(C(=O)[C@@H](Cc3ccc(Cl)cc3)NC(=O)C(C)(C)N)CC2)CC1 [Compound 7.8]"
  target.entity: "MC4r (Homo sapiens)"
  pKi: 8.22

I. CC(=O)N1CCC(N(CC(C)C)N2CCN(C(=O)[C@@H](Cc3ccc(Cl)cc3)NC(=O)C3(N)CCCCC3)CC2)CC1 [Compound 7.5]
II. CCC(N)(CC)C(=O)N[C@H](Cc1ccc(Cl)cc1)C(=O)N1CCN(N(CC(C)C)C2CCN(C(C)=O)CC2)CC1 [Compound 7.6]
### Prompt Hi, I'm comparing two records. Which one has the lower pKi, I or II ? The response must carry the label of the picked entry.
### Response II
(II: 7.89, I: 8.40)

----------
# target.entity: hMC2r (Homo sapiens)
# Sequence (Q01718 whole entry): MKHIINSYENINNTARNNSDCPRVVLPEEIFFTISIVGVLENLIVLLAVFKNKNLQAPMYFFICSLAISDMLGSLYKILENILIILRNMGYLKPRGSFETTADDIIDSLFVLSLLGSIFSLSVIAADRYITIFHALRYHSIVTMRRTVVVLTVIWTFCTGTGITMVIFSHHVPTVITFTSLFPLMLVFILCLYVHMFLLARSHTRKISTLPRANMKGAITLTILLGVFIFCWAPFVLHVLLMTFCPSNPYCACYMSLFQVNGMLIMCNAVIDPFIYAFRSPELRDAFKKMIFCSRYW
# Sequence (Q9D159 whole entry partner): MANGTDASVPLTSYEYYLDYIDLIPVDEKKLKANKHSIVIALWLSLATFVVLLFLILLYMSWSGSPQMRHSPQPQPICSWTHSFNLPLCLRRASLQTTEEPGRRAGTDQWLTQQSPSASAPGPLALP
# protocol: cAMP assay hMC2r (human recombinant Cloudman M3 cells, ACTH reference)
measurement.label: EC50

### Prompt Write down the reported EC50 of `CC(=O)N1CCC(N(CC(C)C)N2CCN(C(=O)[C@@H](Cc3ccc(Cl)cc3)NC(=O)C(C)(C)N)CC2)CC1` , test system: hMC2r (Homo sapiens).
### Response > 1 µM

----------
# protocol: Plasma concentrations following oral administration in Sprague-Dawley rats
# Assay type: in vivo, rat
# condition.set: rat, plasma, oral 30 mg/kg, read-out: terminal half-life (converted)
measurement.label: half-life (h)
Report as a plain number; the unit h is understood.

### Prompt # query: half-life of entry CC(=O)N1CCC(N(CC(C)C)N2CCN(C(=O)[C@@H](Cc3ccc(Cl)cc3)NC(=O)C(C)(C)N)CC2)CC1 [Compound 7.1]
### Response 3.94

----------
# target.entity: MC4r (Homo sapiens, UniProt P32245)
# Sequence (P32245 whole entry): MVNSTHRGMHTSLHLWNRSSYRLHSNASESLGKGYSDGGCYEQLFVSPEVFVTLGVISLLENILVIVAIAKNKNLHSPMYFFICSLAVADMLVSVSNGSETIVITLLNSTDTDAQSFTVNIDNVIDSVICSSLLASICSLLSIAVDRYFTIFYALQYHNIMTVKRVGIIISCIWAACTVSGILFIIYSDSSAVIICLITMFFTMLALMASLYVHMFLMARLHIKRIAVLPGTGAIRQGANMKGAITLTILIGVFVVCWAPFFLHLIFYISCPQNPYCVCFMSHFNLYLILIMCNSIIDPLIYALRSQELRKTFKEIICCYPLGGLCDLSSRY
# protocol: Binding of iodine-125 labeled NDP-α-MSH, human recombinant CHO cells, hMC4r
# Parameters: expressed in transfected cells; host or cells: CHO
measurement.label: Ki (nM)
Could you give me the number in nM? Just the number is fine.

### Prompt What value of Ki has been reported for the following molecule? `CC(=O)N1CCC(N(CC(C)C)N2CCN(C(=O)[C@@H](Cc3ccc(Cl)cc3)NC(=O)C(C)(C)N)CC2)CC1`
### Response 14

----------
# target.entity: MC4r (Homo sapiens)
# protocol: cAMP functional study in human MC4r expression system approximating maximal physiologic receptor densities
# Assay type: cell-based
# Set-up: host or cells: TREx-293
# condition.set: low receptor density human MC4r system; read-out: relative efficacy, compared to NDP-α-MSH
measurement.label: Emax (%)

# count of solved cases: 4
- molecule: "CC(=O)N1CCC(N(CC(C)C)N2CCN(C(=O)[C@@H](Cc3ccc(Cl)cc3)NC(=O)C3(N)CC3)CC2)CC1 [Compound 7.2]"
  unit.name: "%"
  Emax: 3
- molecule: "CC(=O)N1CCC(N(CC(C)C)N2CCN(C(=O)[C@@H](Cc3ccc(Cl)cc3)NC(=O)C(C)(C)N)CC2)CC1 [Compound 7.1]"
  unit.name: "%"
  Emax: 33
- molecule: "CC(=O)N1CCC(N(CC(C)C)N2CCN(C(=O)[C@@H](Cc3ccc(Cl)cc3)NC(=O)C3(N)CCC3)CC2)CC1 [Compound 7.3]"
  unit.name: "%"
  Emax: 10
- molecule: "CC(=O)N1CCC(N(CC(C)C)N2CCN(C(=O)[C@@H](Cc3ccc(Cl)cc3)NC(=O)C3(N)CCCC3)CC2)CC1 [Compound 7.4]"
  unit.name: "%"
  Emax: 10

1. CC(=O)N1CCC(N(CC(C)C)N2CCN(C(=O)[C@@H](Cc3ccc(Cl)cc3)NC(=O)C3(N)CCCCCC3)CC2)CC1 [Compound 7.7]
2. CC(=O)N1CCC(N(CC(C)C)N2CCN(C(=O)[C@@H](Cc3ccc(Cl)cc3)NC(=O)C3(N)CCCCC3)CC2)CC1 [Compound 7.5]
### Prompt Which gives the smaller Emax number: 1 or 2 ? Kindly give the label for the entry you pick.
### Response 1

Where these numbers come from: patent US20210198201A1
